target under test: tau (Homo sapiens, UniProt P10636)
Sequence (P10636 623-695 limits assumed): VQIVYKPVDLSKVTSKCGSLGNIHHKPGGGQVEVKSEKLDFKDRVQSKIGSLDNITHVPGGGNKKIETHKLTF
assay protocol: MCE Phenols Library screening, tau biosensor cell seeding assay (AvZ)
Format: cell-based
stated conditions: Z score, replicate 2
readout kind: Z Repl 2
No unit in the answer, please; the number alone is enough.

Exam item: Param readout= Z Repl 2; system= tau (Homo sapiens, UniProt P10636); entry= O=C(O)Cc1ccccc1O [2-Hydroxyphenylacetic acid] ; returns value.
Marked response: -0.32

Exam item: Param readout= Z Repl 2; system= tau (Homo sapiens, UniProt P10636); entry= COc1ccc(CCC(=O)c2c(O)cc(O[C@@H]3O[C@H](CO)[C@@H](O)[C@H](O)[C@H]3O[C@@H]3O[C@@H](C)[C@H](O)[C@@H](O)[C@H]3O)cc2O)cc1O [Neohesperidin dihydrochalcone] ; returns value.
Marked response: -0.225

Exam item: Param readout= Z Repl 2; system= tau (Homo sapiens, UniProt P10636); entry= COc1c(O[C@@H]2O[C@H](CO)[C@@H](O)[C@H](O)[C@H]2O)cc2c(c1O)C(=O)c1c(cc(C)c(O)c1OC)C2=O [Aurantio-obtusin ?-D-glucoside] ; returns value.
Marked response: -0.271
